Reference source for all entries: ChEMBL document CHEMBL3046441

# Test system: Periplaneta americana
# METHOD NOTES: Toxic effect in Periplaneta americana (American cockroach) assessed as paralyzed insects after 24 hr of abdomen compound injection by insecticidal assay
# Type: functional
Collected log(1/MLD) values appear next to each entry.

[
  {
    "SMILES INPUT": "O=[N+]([O-])/C=C1\\SCCN1Cc1ccc(Cl)nc1",
    "log(1/MLD)": 10.37
  },
  {
    "SMILES INPUT": "O=[N+]([O-])/N=C1\\SCCN1Cc1cnc(Cl)s1",
    "log(1/MLD)": 8.91
  },
  {
    "SMILES INPUT": "O=[N+]([O-])/C=C1\\NCCN1Cc1ccc(Cl)nc1",
    "log(1/MLD)": 10.19
  },
  {
    "SMILES INPUT": "O=[N+]([O-])/C=C1\\CCCN1Cc1cnc(Cl)s1",
    "log(1/MLD)": 10.06
  },
  {
    "SMILES INPUT": "O=[N+]([O-])/N=c1\\ccccn1Cc1cnc(Cl)s1",
    "log(1/MLD)": 9.74
  },
  {
    "SMILES INPUT": "O=[N+]([O-])/N=C1\\NCCN1Cc1ccc(Cl)nc1",
    "log(1/MLD)": 10.15
  }
]
